# Test system: SK-MEL-2 melanoma
# protocol.description: NCI-60 one-dose screen, 48 h (100 = growth as untreated, 0 = no growth, -100 = all killed)
# details: 10 µM unless noted
# Experimental: Growth inhibition of the SK-MEL-2 human tumor cell line is measured as a screen for anti-cancer activity. Cells are grown in 96 well plates and exposed to the test compound for 48 hours. Compounds are tested at a single concentration, which is 10^-5 M for most compounds. The reported endpoint is percent growth (GI% or GIPRCNT), where numbers from 0 - 100% represent growth inhibition, and numbers from -100% - 0 represent cell death. For example, a value of 40 represents 60% growth inhibition. […]
Compounds without any hit were thinned out: in the full panel of roughly 83,000, 20% have a hit.
Mark Y for growth under 90%, N if at or over.

COc1cccc(/C=N/Nc2nc3ccccc3s2)c1OC ... Y
Cn1cc(NC(=O)Nc2cc(C(=O)O)n(C)c2)cc1C(=O)O ... N
CCOC(=O)/C=C1/SC(=Nc2ccc(C#N)cc2)N(Cc2ccco2)C1=O ... Y
Cc1ncc(C(=O)Nc2ccc(CN3CCN(C)CC3)c(C(F)(F)F)c2)cc1C#Cc1cncc2ncccc12 ... Y
Cc1n(Cc2ccc3ccccc3c2)c2ccccc2[n+]1Cc1ccc2ccccc2c1 ... Y
Cn1cnc([N+](=O)[O-])c1Sc1nc(N)nc2nc[nH]c12 ... Y

### Prompt I wonder whether "COc1cccc(CCN2C(=O)CCC3=C2CCC3=O)c1" has growth below 90%. Can you tell?
### Response N

### Prompt Please determine if "Nc1ccc2c(c1Br)Cc1ccccc1-2" is below 90% in terms of growth.
### Response N

### Prompt Identify whether the compound "Cc1ccc(/C=C/C(=O)c2ccc(F)cc2)s1" records growth below 90%.
### Response Y

### Prompt Consider "O=C(Nc1ccc(Cl)cc1)Nc1nc2ccc(OC(F)(F)F)cc2o1" . Does its growth lie strictly below 90%?
### Response N

====

# Test system: NCI-H322M lung
# protocol.description: NCI-60 one-dose screen, 48 h (100 = growth as untreated, 0 = no growth, -100 = all killed)
# details: 10 µM unless noted
About 83,000 compounds went through this panel and 20% of them were active in at least one assay; those are over-represented in the sample as a whole.
Reported growth values for a set of compounds
Numeric only. Scale: %

Would you please look over these solved cases?
Nc1nc2c(c(=O)[nH]1)C1(C(=O)Nc3ccccc31)c1c(nc(N)[nH]c1=O)N2 ... 98.1
COc1cccc(-c2nc3cc(NC(=O)c4ccc(Cl)c(C#N)c4)ccc3o2)c1 ... -13.2
Nc1ccccc1-c1ccn[nH]1 ... 93.8
CN(C)c1ccc(-c2nc3ncc(Br)cc3o2)cc1 ... 90.2

### Prompt Give reported growth for "CCCCCCCC[Si](OCC)(OCC)OCC" (NCI-H322M lung)
### Response 103

### Prompt Send back NCI-H322M lung growth of "COc1ccc(CNC(=O)c2c(C)n([O-])c3ccccc3[n+]2=O)cc1" only.
### Response 144

### Prompt Give the observed growth of COc1ccc(C2CC(c3ccc4c(c3)OCO4)=NN2C=O)cc1 (stereo not given) for NCI-H322M lung.
### Response 107

### Prompt State, for NCI-H322M lung, measured growth of the compound listed here: C=C1CC[C@@H]2[C@](C)(COC(C)=O)[C@H](OC(C)=O)CC[C@@]2(C)[C@@H]1CC(NCc1ccccc1)C1=CCOC1=O (stereo not given in full)
### Response 77

### Prompt Provide the reported growth (system: NCI-H322M lung) for "COc1ccc(-n2cnc3cc(C(=O)N4CCCCC4)ccc32)cc1"
### Response 102

### Prompt Give measured growth for "COc1ccc2c(c1)C(=Nc1cc(OC)c(OC)c(OC)c1)C(=O)N2" (NCI-H322M lung).
### Response 108

### Prompt Give NCI-H322M lung growth for the following compound: "OCCN1CCN(CCCN2c3ccccc3Sc3ccc(C(F)(F)F)cc32)CC1"
### Response 65

====

# System: NCI/ADR-RES ovarian
# protocol.description: NCI-60 one-dose screen, 48 h
# details: 10 µM unless noted
Compounds without any hit were thinned out: in the full panel of roughly 83,000, 20% have a hit. Activity calls are given as the source filed them. How the source made its calls: active means growth percent below 10; inactive means the rest.
Just give me one of these, please: y = active, n = inactive

// below: answered molecules
O=C(CNC(=O)c1cccc2ccccc12)Nc1ccccc1Oc1cccc(O)c1 ... n
COc1cccc(C=Nc2cc(C(C)C)c(O)cc2C)c1O ... n
CCCCCCC(CC#N)(CCC)CCCC (stereo not given) ... n
Cc1ccc2nc(SCC(=O)Nc3ccc(-c4nc5ccccc5s4)c(Cl)c3)[nH]c2c1 ... n
N#Cc1ncc(-c2ccc(C(F)(F)F)cc2)c(NC2CCCCCC2)n1 ... n

### Prompt # lookup: test call for "CCN1CCN(c2nc(NNC(=O)Cc3ccccc3)nc(N3CCN(C(c4ccccc4)c4ccccc4)CC3)n2)CC1"
### Response n

### Prompt Which outcome did this test record for the molecule "Nc1nc2c(c(=O)[nH]1)C1(C(=O)Nc3ccccc31)c1c(nc(N)[nH]c1=O)N2" ?
### Response n

### Prompt Short answer needed: outcome of this test for "O=C(CSc1ncc(-c2ccccc2)n1-c1ccccc1)Nc1ccc(-c2nc3ccccc3s2)cc1" ?
### Response n

### Prompt Lab log entry: "O=C(Nc1nn2c(-c3cc(C(F)(F)F)cc(C(F)(F)F)c3)nnc2s1)C1CCCC1" — outcome as called in the assay?
### Response y

### Prompt Which outcome did this test record for the molecule "Cc1ccc(/C=C(/C#N)n2nnc3ncccc32)cc1" ?
### Response y

### Prompt In this assay, the call recorded for "COc1cc(-c2nc3sc4c(c3c(=O)[nH]2)CCCCCC4)cc(OC)c1OC" was what?
### Response y

### Prompt // param item: "Cc1ccc(-c2c3c(N)c4c(nc3nc3c2c(C)nn3-c2ccccc2)CCC4)cc1" ; yields the recorded call
### Response n

====

# Test system: HOP-92 NSCLC
# protocol.description: NCI-60 one-dose screen, 48 h (100 = growth as untreated, 0 = no growth, -100 = all killed)
# details: 10 µM unless noted
About 83,000 compounds went through this panel and 20% of them were active in at least one assay; those are over-represented in the sample as a whole. Active and inactive are the calls of the source. How the source made its calls: active means growth percent below 10; inactive means the rest.
Reported growth by item:

CCSc1nc(-c2ccc(F)cc2)c(C#N)c(=O)[nH]1 ... 131% (inactive)

### Prompt Tell me measured growth for "O=C(CNC(=O)c1cccc2ccccc12)Nc1ccccc1Oc1ccc(O)cc1" please.
### Response 77.5% [5 µM] (inactive)

### Prompt Name the recorded growth of the compound listed here: "N/C(=N\c1nc2ccccc2s1)NC(=O)Nc1ccccc1Cl"
### Response 139% (inactive)

### Prompt Recall and state the measured growth for "COc1cc(Cl)cc(-c2nn(-c3cccc(NC(=O)c4cc(C(F)(F)F)cc(C(F)(F)F)c4)c3)cc2-c2ccncc2)c1" .
### Response 46.8% (inactive)

### Prompt Input "CCCCNCCCN(CCCC)CCCNCCCC" , output reported growth.
### Response 41.5% (inactive)

====

# Tested on: SR leukemia
# protocol.description: NCI-60 one-dose screen, 48 h
# details: 10 µM unless noted
This is part of a sample that, as a whole, favours compounds with a hit. Of some 83,000 tested, about 20% had one in any assay. Calls of active or inactive are those of the source. Rule for the calls: active = growth percent below 10; inactive = the rest.
Your reply should match one of these outcome classes. 1.0 (active), 0.0 (inactive)

Use the examples below as a reference point.
Nc1ccccc1C#Cc1ccccc1C#Cc1ccc(OCCCCCCOc2ccc(C#Cc3ccccc3C#Cc3ccccc3N)cc2)cc1 ... 0.0
O=C(Oc1ccccc1)C(Br)C(Br)c1ccccc1 (stereo not given) ... 1.0
COc1ccc2c(c1)c(CC(=O)[Se]C)c(C)n2C(=O)c1ccc(Cl)cc1 ... 0.0

### Prompt What did the test return for "COc1ccc2nc(-c3ccc(Cl)cc3)cc(-c3nnc(SCC(=O)Nc4ccc(C(C)=O)cc4)n3-c3ccccc3)c2c1" ?
### Response 0.0

### Prompt Fill in: this test's call for "COc1cnc2c(c1)C(=O)c1c-2n(CCCNC2=NCCS2)c(=O)c2cc(F)ccc12" is ___
### Response 1.0

====

# Test system: HCT-116 colon
# protocol.description: NCI-60 one-dose screen, 48 h (100 = growth as untreated, 0 = no growth, -100 = all killed)
# details: 10 µM unless noted
This is part of a sample that, as a whole, favours compounds with a hit. Of some 83,000 tested, about 20% had one in any assay.
measurement.kind: growth (%)
Answer format: numeric, % implied, no suffix.

Example entries and their recorded answers appear below.
CN1CCN(c2nc3scc(-c4ccccc4)c3c(=O)[nH]2)CC1 ... 91.9
O=CN1N=C(c2ccc(Nc3ccnc4cc(Cl)ccc34)cc2)CC1c1ccc(Cl)cc1 (configuration not stated) ... 11.7
O=C1OC2(c3ccccc31)c1ccccc1-c1ccccc12 ... 54.4
Cc1cc(Br)c(C)cc1Br ... 99.1

Next item in the queue.
### Prompt Consider the molecule "Cc1cccc2nnc(-c3ccccc3)n12" . State its measured growth.
### Response 104

// provenance: PubChem BioAssay (NCI)
